# target: BCL2 D111A (Homo sapiens, UniProt P10415, D111A)
# assay-info: TR-FRET competitive binding assay, BCL2 D111A
# experimental-conditions: Ki determined from IC50, read-out: TR_FRET EKI_Bcl2 D111A
outcome-measure: Ki (nM)

Example results:
- Cc1c(N(C(=O)c2cc(-c3cc4c(cc3C(=O)N3Cc5ccccc5C[C@H]3C)CN(C(=O)Cc3ccc(OCCN5CCN(CC(F)F)CC5)cc3)CC4)n(C)c2C)c2ccc(O)cc2)cc(C#N)n1C: 0.16
- Cc1c(N(C(=O)c2cc(-c3cc4c(cc3C(=O)N3Cc5ccccc5C[C@H]3C)CN(C(=O)Cc3ccc(OCCN5CCN6CCOC[C@@H]6C5)cc3)CC4)n(C)c2C)c2ccc(O)cc2)cc(C#N)n1C: 0.06
- Cc1c(N(C(=O)c2cc(-c3cc4c(cc3C(=O)N3Cc5ccccc5C[C@H]3C)CN(C(=O)Cc3ccc(OCCN5CCO[C@H](C)C5)cc3)CC4)n(C)c2C)c2ccc(O)cc2)cc(C#N)n1C: 0.17
- Cc1c(N(C(=O)c2cc(-c3cc4c(cc3C(=O)N3Cc5ccccc5C[C@H]3CN3C[C@H]5C[C@H]5C3)CN(C(=O)Cc3ccc(OCCN5CCOCC5)cc3F)CC4)n(C)c2C)c2ccc(O)cc2)cc(C#N)n1C: 0.3
- Cc1c(N(C(=O)c2cc(-c3cc4c(cc3C(=O)N3Cc5ccccc5C[C@H]3C)CN(C(=O)Cc3ccc(N5CCN(CC(F)(F)F)CC5)cc3)CC4)n(C)c2C)c2ccc(O)cc2)cc(C#N)n1C: 1.54
- Cc1c(N(C(=O)c2cc(-c3cc4c(cc3C(=O)N3Cc5ccccc5C[C@H]3C)CN(C(=O)C3CCN(c5ccccc5)C3=O)CC4)n(C)c2C)c2ccc(O)cc2)cc(C#N)n1C (stereo partly drawn): 1.29

1 = Cc1c(N(C(=O)c2cc(-c3cc4c(cc3C(=O)N3Cc5ccccc5C[C@H]3CN3CCCCC3)CN(C(=O)Cc3ccc(OCCN(C)CCF)cc3F)CC4)n(C)c2C)c2ccc(O)cc2)cc(C#N)n1C
2 = Cc1c(C(=O)N(c2ccc(O)cc2)c2cc(C#N)n(C3CC3)c2C)cc(-c2cc3c(cc2C(=O)N2Cc4ccccc4C[C@H]2C)CN(C(=O)Cc2ccc(OCCN4CCOCC4)cc2)CC3)n1C
Ask: Field: lower recorded Ki (choose 1 or 2 ) In your reply, give the label of the chosen option.
Result: 1

Measured values drawn from patent US20250179047A1 for this set.
